Entry source: patent US12378241B2

# method_description: Evaluation of the pharmacokinetics in female Balb/c mice (IV and PO)
# Assay type: in vivo
# assay_conditions: mouse, plasma; PO 1 mg/kg, female Balb/c mice; read-out: MRT0-last
Where a name gives a salt, the structure may show the parent alone.
test_readout: MRT last (h)
Express the result in h but write the number alone.

// query MRT last value for entry Cn1cc(-c2ccc3c(c2)ncn3-c2cc(NS(=O)(=O)C3CC3)cc(-c3ccc(F)cc3F)c2)cn1 [Trifluoroacetate of compound A, reference compound]
2.76

# lookup: MRT last of Cn1cc(-c2ccn3c(-c4cc(NS(C)(=O)=O)nc(-c5ccc(F)cc5F)c4)cnc3c2)cn1 [Trifluoroacetate salt of compound 7]
2.35
